- Species: Rattus norvegicus
- protocolDetails: DrugMatrix - Regimen: Daily Repeat
- Assay type: toxicity, organism-based, Sprague-Dawley
- Set-up: regimen Daily Repeat, gender Male, age 6-8 weeks
- studyConditions: in vivo, po, 0 mg/kg, 120 h, tissue Plasma, route oral GAVAGE, dose level Control, time 5 day, […]
Lab note: compare CREATINE PHOSPHOKINASE with 300 u/L, writing MET if less and NOT MET if equal or more.

Some entries whose results are on file:
>>> assignedcategory("CC(C)(Oc1ccc(CCNC(=O)c2ccc(Cl)cc2)cc1)C(=O)O [BEZAFIBRATE]")
"MET"
>>> assignedcategory("COC1=CC(=O)C[C@@H](C)[C@]12Oc1c(Cl)c(OC)cc(OC)c1C2=O")
"NOT MET"
>>> assignedcategory("COc1ccc2c(c1)c(CC(=O)OCC(=O)O)c(C)n2C(=O)c1ccc(Cl)cc1")
"NOT MET"
>>> assignedcategory("CCCC[C@@H](CC)COC(=O)c1ccccc1C(=O)OC[C@@H](CC)CCCC [BIS(2-ETHYLHEXYL)PHTHALATE]")
"MET"

Now look at this entry.
Problem: For the compound "CC(=O)[C@H]1CC[C@H]2[C@@H]3CCC4=CC(=O)CC[C@]4(C)[C@H]3CC[C@]12C" , is CREATINE PHOSPHOKINASE under 300 u/L?
MET

---

- Organism: Rattus norvegicus
- protocolDetails: DrugMatrix - Regimen: Daily Repeat
- Format: toxicity, organism-based, Sprague-Dawley
- Design: regimen Daily Repeat, gender Male, age 6-8 weeks
- studyConditions: in vivo, po, 0 mg/kg, 120 h, tissue Plasma, route oral GAVAGE, dose level Control, time 5 day, vehicle 100 % WATER
readoutName: PHOSPHORUS (mg/dL)
Numbers only, in mg/dL.

Examples from the recorded data:
>>> obsvalue("COc1ccc(C(CN(C)C)C2(O)CCCCC2)cc1 (centres undefined) [VENLAFAXINE]")
12.92
>>> obsvalue("CC1COc2c(N3CCN(C)CC3)c(F)cc3c(=O)c(C(=O)O)cn1c23 (centres undefined) [OFLOXACIN]")
12.03

For every item below, please supply its PHOSPHORUS.
1. COc1cc2c(N3CCN(C(=O)Nc4ccc(OC(C)C)cc4)CC3)ncnc2cc1OCCCN1CCCCC1 [TANDUTINIB]
2. NNC(=O)c1ccncc1 [ISONIAZID]

1. 11.07
2. 11.72

For every item below, please supply its PHOSPHORUS.
1. Cn1cnc([N+](=O)[O-])c1Sc1ncnc2nc[nH]c12 [AZATHIOPRINE]
2. CC(C)(S)[C@@H](N)C(=O)O [PENICILLAMINE]

[10.6, 10.78]

For every item below, please supply its PHOSPHORUS.
1. CNCCC=C1c2ccccc2CCc2ccccc21 [NORTRIPTYLINE]
2. O=C1NC(=O)C(c2ccccc2)(c2ccccc2)N1 [PHENYTOIN]
3. CC1(C)S[C@@H]2[C@H](NC(=O)[C@H](N)c3ccc(O)cc3)C(=O)N2[C@H]1C(=O)O [AMOXICILLIN]
4. Cc1cc(NS(=O)(=O)c2ccc(N)cc2)no1 [SULFAMETHOXAZOLE]

[11.35, 11.35, 11.52, 12.92]

For every item below, please supply its PHOSPHORUS.
1. Clc1ccc(C(c2ccccc2Cl)C(Cl)Cl)cc1 (centres undefined) [MITOTANE]
2. COc1cccc(C2(O)CCCCC2CN(C)C)c1 (centres undefined) [TRAMADOL]
3. CC(CCc1ccccc1)NCC(O)c1ccc(O)c(C(N)=O)c1 (centres undefined) [LABETALOL]

[11.65, 10.13, 11.83]

For every item below, please supply its PHOSPHORUS.
1. NCC1(CC(=O)O)CCCCC1 [GABAPENTIN]
2. CN1CCC[C@H]1c1cccnc1 [NICOTINE]
3. Nc1ccc(S(=O)(=O)Nc2ccnn2-c2ccccc2)cc1 [SULFAPHENAZOLE]
4. Fc1ccc([C@@H]2CCNC[C@H]2COc2ccc3c(c2)OCO3)cc1 [PAROXETINE]
5. CN1CCN(C(=O)OC2c3nccnc3C(=O)N2c2ccc(Cl)cn2)CC1 (centres undefined) [ZOPICLONE]
6. C[C@]12Cc3c[nH]nc3C[C@@H]1CC[C@@H]1[C@@H]2CC[C@@]2(C)[C@H]1CC[C@]2(C)O [STANOZOLOL]

[12.63, 12.03, 11.25, 10.13, 10.38, 10.13]

---

- Organism: Rattus norvegicus
- protocolDetails: DrugMatrix - Regimen: Daily Repeat
- Assay type: toxicity, organism-based, Sprague-Dawley
- Design: regimen Daily Repeat, gender Male, age 6-8 weeks
- studyConditions: in vivo, po, 0 mg/kg, 72 h, tissue Plasma, route oral GAVAGE, dose level Control, time 3 day, vehicle .5 % CMC
Exercise: for every item that follows, state its recorded POTASSIUM.
One number for each entry, in MEQ/L.

>>> obsvalue("O=C1CCc2cc(OCCCCc3nnnn3C3CCCCC3)ccc2N1 [CILOSTAZOL]")
7
>>> obsvalue("C=C1CC[C@H](O)C/C1=C/C=C1\\CCC[C@]2(C)[C@@H]([C@H](C)/C=C/[C@H](C)C(C)C)CC[C@@H]12 [ERGOCALCIFEROL]")
6.23
>>> obsvalue("CN1C(C(=O)Nc2ccccn2)=C(O)c2ccccc2S1(=O)=O [PIROXICAM]")
6.43
>>> obsvalue("O=c1[nH]cc(F)c(=O)[nH]1 [FLUOROURACIL]")
5.88

For every item below, please supply its POTASSIUM.
1. CCc1ccc(C(=O)C(C)CN2CCCCC2)cc1 (centres undefined) [EPERISONE]
2. CC(/C=C1\SC(=S)N(CC(=O)O)C1=O)=C\c1ccccc1
3. Brc1ccccc1 [BROMOBENZENE]
4. COc1c(C)c2c(c(O)c1C/C=C(\C)CCC(=O)OCCN1CCOCC1)C(=O)OC2 [MYCOPHENOLATE MOFETIL]
5. C[C@]12CCC(=O)C=C1CC[C@@H]1[C@@H]2C(=O)C[C@@]2(C)[C@H]1CC[C@]2(O)C(=O)CO [CORTISONE]

[6.41, 6.21, 6.52, 6.21, 7.03]

---

- Organism: Rattus norvegicus
- protocolDetails: DrugMatrix - Regimen: Daily Repeat
- Format: toxicity, organism-based, Sprague-Dawley
- Design: regimen Daily Repeat, gender Male, age 6-8 weeks
- studyConditions: in vivo, po, 0 mg/kg, 120 h, tissue Plasma, route oral GAVAGE, dose level Control, time 5 day, vehicle 100 % WATER
Lab note: compare ALBUMIN with 4 G/DL, writing 1 if less and 0 if equal or more.

Some entries whose results are on file:
>>> assignedcategory("COc1cc2c(N3CCN(C(=O)Nc4ccc(OC(C)C)cc4)CC3)ncnc2cc1OCCCN1CCCCC1")
1
>>> assignedcategory("CNCCC=C1c2ccccc2CCc2ccccc21")
0
>>> assignedcategory("NC(=O)c1ncn([C@@H]2O[C@H](CO)[C@@H](O)[C@H]2O)n1")
0
>>> assignedcategory("Cc1cc(NS(=O)(=O)c2ccc(N)cc2)no1")
0

Problem: For the compound CC(CCc1ccccc1)NCC(O)c1ccc(O)c(C(N)=O)c1 (configuration not stated) , is ALBUMIN under 4 G/DL?
0

Next up: "CC1(C)S[C@@H]2[C@H](NC(=O)[C@H](N)c3ccc(O)cc3)C(=O)N2[C@H]1C(=O)O"
0

---

- Species: Rattus norvegicus
- protocolDetails: DrugMatrix - Regimen: Daily Repeat
- Format: toxicity, organism-based, Sprague-Dawley
- Parameters: regimen Daily Repeat, gender Male, age 6-8 weeks
- studyConditions: in vivo, po, 0 mg/kg, 72 h, tissue Blood, route oral GAVAGE, dose level Control, time 3 day, […]
readoutName: MEAN CORPUSCULAR VOLUME (fL)
Answers are plain numbers, in fL.

>>> obsvalue("CCCC[C@@H](CC)COC(=O)c1ccccc1C(=O)OC[C@@H](CC)CCCC [BIS(2-ETHYLHEXYL)PHTHALATE]")
62.38

For every item below, please supply its MEAN CORPUSCULAR VOLUME.
1. Oc1c(Cl)cc(Cl)cc1Sc1cc(Cl)cc(Cl)c1O
2. CN(C)CCCC1(c2ccc(F)cc2)OCc2cc(C#N)ccc21 (stereo unspecified)
3. CC1=C(/C=C/C(C)=C/C=C/C(C)=C\C(=O)O)C(C)(C)CCC1
4. Cn1cnc([N+](=O)[O-])c1Sc1ncnc2nc[nH]c12

1. 60.18
2. 63.3
3. 61.62
4. 67

Given CC(C)(Oc1ccc(CCNC(=O)c2ccc(Cl)cc2)cc1)C(=O)O [BEZAFIBRATE] , state its recorded MEAN CORPUSCULAR VOLUME.
62.65

---

- Species on record: Rattus norvegicus
- protocolDetails: DrugMatrix - Regimen: Daily Repeat
- Type: toxicity, organism-based, Sprague-Dawley
- Set-up: regimen Daily Repeat, gender Male, age 6-8 weeks
- studyConditions: in vivo, ip, 0 mg/kg, […], tissue Blood, route intraperitoneal, dose level Control, time 28 day, vehicle 100 % SALINE
readoutName: ABSOLUTE LYMPHOCYTE
Answer with the figure and its unit, nothing else.

Given "NCC[C@H](O)C(=O)N[C@@H]1C[C@H](N)[C@@H](O[C@H]2O[C@H](CN)[C@@H](O)[C@H](O)[C@H]2O)[C@H](O)[C@H]1O[C@H]1O[C@H](CO)[C@@H](O)[C@H](N)[C@H]1O" , state its recorded ABSOLUTE LYMPHOCYTE.
9910 cells/µL
